Tested on: Venturia inaequalis
Experiment notes: In vivo preventive Venturia test (apples), Example J
Condition parameters: 240 h, read-out: efficacy
Assay metric: pest or weed control at 100 ppm

compound="N#Cc1cncn1CC(O)(Cc1ccc(F)c(F)c1F)C1(Cl)CC1 (stereo not drawn)" assay_metric="pest or weed control at 100 ppm" measured_result="80 to 89%"
compound="N#Cc1cncn1CC(O)(Cc1ccc(F)cc1F)C1(F)CC1 (stereo not drawn)" assay_metric="pest or weed control at 100 ppm" measured_result="80 to 89%"
compound="N#Cc1cncn1CC(O)(Cc1ccccc1F)C1(F)CC1 (stereo not drawn)" assay_metric="pest or weed control at 100 ppm" measured_result="80 to 89%"
compound="OC(Cc1ccccc1Cl)(Cn1cncc1F)C1(Cl)CC1 (stereo not drawn)" assay_metric="pest or weed control at 100 ppm" measured_result="90 to 100%"
compound="OC(Cc1ccc(Cl)cc1Cl)(Cn1cncc1Cl)C1(Cl)CC1 (stereo not drawn)" assay_metric="pest or weed control at 100 ppm" measured_result="90 to 100%"
compound="N#Cc1cncn1CC(O)(Cc1ccccc1)C1(Cl)CC1 (stereo not drawn)" assay_metric="pest or weed control at 100 ppm" measured_result="80 to 89%"
compound="N#Cc1cncn1CC(O)(Cc1ccc(Cl)cc1F)C1(Cl)CC1 (stereo not drawn)" assay_metric="pest or weed control at 100 ppm" measured_result="90 to 100%"
compound="OC(Cc1ccc(Br)cc1F)(Cn1cncc1Cl)C1(Cl)CC1 (stereo not drawn)" assay_metric="pest or weed control at 100 ppm" measured_result="90 to 100%"
compound="Cc1ccc(CC(O)(Cn2cncc2C#N)C2(Cl)CC2)c(F)c1 (stereo not drawn)" assay_metric="pest or weed control at 100 ppm" measured_result="80 to 89%"
